Assay: BSK_KF3CT_SRB: Viability Assessment in the BioMAP Diversity Plus: KF3CT Assay (AID 2283069);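 further: total protein by sulforhodamine B staining as a cytotoxicity measure; read 24 h after compound addition; fitted for both signal gain and loss against DMSO baseline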
Conditions: primary human keratinocytes with fibroblasts
The source made the active and inactive calls. How the source made its calls: active means hit-call score of the fitted dose curve at least 0.9, where 1 is the maximum; inactive means score below 0.9.

Compound | outcome
CCCCCCCC1CCC(=O)O1 (stereo not drawn) | inactive
CCCCN1C(=O)[C@@H]([C@H](O)C2CCCCC2)NC(=O)C12CCN(Cc1ccc(Oc3ccc(C(=O)O)cc3)cc1)CC2 | inactive
O=S(=O)(O)c1ccc(N=Nc2c(O)ccc3cc(S(=O)(=O)O)ccc23)cc1 | inactive

----------
Read-out: Monocyte Chemoattractant Protein-1 (MCP1), CCL2 (gene 6347)
Test: BSK_CASM3C_MCP1: BioMAP Diversity Plus: CASM3C Assay for Monocyte Chemoattractant Protein-1 (MCP1) Biomarker Activity (AID 2283046);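 further: MCP-1 level quantified by ELISA 24 h after dosing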
Details: primary human coronary artery smooth muscle cells; actives raise or lower the signal
Active and inactive are the calls of the source. How the source made its calls: active means hit-call score of the fitted dose curve at least 0.9, where 1 is the maximum; inactive means score below 0.9.
Please answer using one outcome listed in TRUE for active, FALSE for inactive

Tell me the assay call for CCN(CC)C(=S)SSC(=S)N(CC)CC please. TRUE

Which result was noted for this molecule in the test: Cc1ncc([C@@H](CCCCCCc2ccc3c(n2)NCCC3)CC(=O)O)cn1 FALSE

Hey, what did the test say about Cc1cccc(O)c1C ? FALSE

# fetch the recorded call for OC[C@H]1O[C@@H]2O[C@H]3[C@H](O)[C@@H](O)[C@@H](O[C@H]4[C@H](O)[C@@H](O)[C@@H](O[C@H]5[C@H](O)[C@@H](O)[C@@H](O[C@H]6[C@H](O)[C@@H](O)[C@@H](O[C@H]7[C@H](O)[C@@H](O)[C@@H](O[C@H]1[C@H](O)[C@H]2O)O[C@@H]7CO)O[C@@H]6CO)O[C@@H]5CO)O[C@@H]4CO)O[C@@H]3CO here FALSE

So what was the verdict on Cn1c(=O)c2[nH]cnc2n(C)c1=O in this test? FALSE

For O=S(=O)(O)c1ccc(N=Nc2c(O)ccc3cc(S(=O)(=O)O)ccc23)cc1 , which call appears in the assay record? FALSE

Hi, sorry to bother you, what did the test record for OCCC(F)(F)C(F)(F)C(F)(F)C(F)(F)F ? FALSE

I would be grateful if you could indicate the recorded call for OCc1c[nH]c2ccccc12 . FALSE

For c1ccc2ncccc2c1 , which call appears in the assay record? FALSE

Test call for this molecule, please: CCCCN1C(=O)[C@@H]([C@H](O)C2CCCCC2)NC(=O)C12CCN(Cc1ccc(Oc3ccc(C(=O)O)cc3)cc1)CC2 FALSE

Status in this test for NCC(F)(F)C(F)(F)C(F)(F)C(F)(F)F ? FALSE

----------
Could you please report measured AC50 for the items listed next?
Read-out: Paternally Expressed 10 (PEG10), PEG10 (gene 23089)
Test: LTEA_HepaRG_PEG10: Life Technologies and Expression Analysis (LTEA) Assay for Paternally Expressed 10 (PEG10) using HepaRG (AID 2283520);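 further: differentiated HepaRG human liver cells in serum-free induction medium with 0.5% DMSO; PEG10 transcript by qRT-PCR normalised to ACTB GAPDH and POLR2A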
Conditions: mRNA level, 48 h; actives raise or lower the signal
The source made the active and inactive calls. Rule for the calls: active = hit-call score of the fitted dose curve at least 0.9, where 1 is the maximum; inactive = score below 0.9.

Reported AC50, compound O=C(O)c1cccc(C[C@@H]2COc3ccc(OCc4nc5cc(F)ccc5s4)cc3[C@@H]2O)c1 : ____ 50 µM (active)

Look at this compound and give its reported AC50. c1ccc(C(O[C@@H]2CCCN(CCc3ccc4c(c3)OCO4)C2)c2ccccc2)cc1 13.1 µM (active)

----------
Read-out: Vascular cell adhesion molecule 1 (VCAM1), VCAM1 (gene 7412)
Experiment: BSK_CASM3C_VCAM1: BioMAP Diversity Plus: CASM3C Assay for Vascular cell adhesion molecule 1 (VCAM1) Biomarker Activity (AID 2283055);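 further: VCAM-1 protein level quantified by ELISA on the cells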
Conditions: primary human coronary artery smooth muscle cells; actives raise or lower the signal
The source made the active and inactive calls. The calls were made as follows: active = hit-call score of the fitted dose curve at least 0.9, where 1 is the maximum; inactive = score below 0.9.
Measure: AC50

Some molecules with recorded AC50:
Structure smiles | AC50
c1ccc2c(c1)-c1cccc3c1c-2cc1ccccc13 | inactive
CCCCCCCCCCCCCCO | 20 µM (active)
CC(=O)c1ccccc1 | inactive
c1ccc(C(O[C@@H]2CCCN(CCc3ccc4c(c3)OCO4)C2)c2ccccc2)cc1 | inactive
CCCCCCCCCCCCCCCCOS(=O)(=O)O | inactive
O=C(O)c1ccc2c(c1)nc(C(=O)NC1CCN(C3CC3)CC1)n2Cc1cc(-c2ccc(Cl)s2)on1 | inactive

So what does the record say about AC50 for C=CN1CCCC1=O ? inactive

Find the recorded AC50 belonging to O=C(Cl)C(F)(F)C(F)(F)C(F)(F)C(=O)Cl and report it. inactive

Data request, read-out AC50, for NC(=O)N(O)[C@@H]1COc2cc(OCc3ccccc3)ccc21 10.2 µM (active)

I would be grateful if you could share the reported AC50 for OCC(CO)(CO)CO . inactive

Which value of AC50 has been reported for COS(C)(=O)=O in the records? inactive

// query AC50 value for entry Cc1nc(-c2ccccn2)ncc1C(=O)Nn1cc(C)c2cc(F)ccc21 inactive

What AC50 value was documented for this molecule, NNC(=O)c1ccncc1 ? inactive

----------
Target: Aryl hydrocarbon receptor (Homo sapiens)
Assay: ATG_Ahr_CIS: Attagene CIS-FACTORIAL HepG2 Assay for human Aryl Hydrocarbon Receptor (Ahr) (AID 2282930)
Conditions: HepG2 AhR cis-factorial reporter transcription; actives raise or lower the signal
Procedure: ATG_CIS is a cell-based, multiplexed-readout assay that uses HepG2, a human liver cell line, with measurements taken at 24 hours after chemical dosing in a 24-well plate.ATG_Ahr_CIS is one of 52 assay component(s) measured or calculated from the ATG_CIS assay. […] This assay endpoint, ATG_Ahr_CIS, was analyzed with bidirectional fitting relative to DMSO as the negative control and baseline of activity. […]
Activity calls are given as the source filed them. Rule for the calls: active = hit-call score of the fitted dose curve at least 0.9, where 1 is the maximum; inactive = score below 0.9.
Write down one outcome, taken from T = active, F = inactive

What did this assay record as the result for OC(CCl)CCl ? F

Lab log entry: CCCCCCOC(=O)CC(CC(=O)OCCCCCC)(OC(=O)CCC)C(=O)OCCCCCC — outcome as called in the assay? F

# outcome recorded in this test, key = NNC(=O)c1ccncc1 F

Entry FC(F)(F)COC(OCC(F)(F)F)OCC(F)(F)F : call = ? F

Would you mind telling me which call this test gave COCc1nnc(-c2ccc[n+]([O-])c2)n1-c1c(Cl)c(Cl)cc2[nH]c(=O)c(=O)[nH]c12 ? F

Just curious, what result did OCCC(F)(F)C(F)(F)C(F)(F)C(F)(F)F get here? F

What was the test verdict on CC(C)CC(C)O (stereo unspecified) ? F

Please state the recorded outcome for this molecule: NCC(F)(F)C(F)(F)C(F)(F)C(F)(F)F F

What call does the record list for CCN(CC)C(=S)SSC(=S)N(CC)CC ? F

GET /call?item= CCCOc1ccc(S(=O)(=O)N2CCN(CC)CC2)cc1-c1nc2c(CC)n(Cc3ccccn3)nc2c(=O)[nH]1 returns the recorded outcome of this test. F

Record request — test call for O=C(O)CO F

Field: outcome | Entry: OC(O)(C(F)C(O)(O)C(F)(F)F)C(F)(F)F F

Returns: the outcome recorded for CCCCCCCC1CCC(=O)O1 (stereo unspecified) in this assay. F

Can you look up the reported call for O=S(=O)(O)CCC(F)(F)C(F)(F)C(F)(F)C(F)(F)C(F)(F)C(F)(F)F for me? F

Can you look up the reported call for CCOc1ccc2[nH]cc(C(=O)NCc3ccccc3)c(=O)c2n1 for me? T

Outcome? CC(C)CCCCCCOC(=O)C1CCCCC1C(=O)OCCCCCCC(C)C (stereo unspecified) T

# lookup: test call for CC1(C)C(=O)N(Cl)C(=O)N1Cl F

Lab log entry: O=S(=O)(O)c1ccc(N=Nc2c(O)ccc3cc(S(=O)(=O)O)ccc23)cc1 — outcome as called in the assay? F

For O=C(Cl)C(F)(F)C(F)(F)C(F)(F)C(=O)Cl , which call appears in the assay record? F

Hi, sorry to bother you, what did the test record for O=C(NO)C1(NS(=O)(=O)c2ccc(Oc3ccc(F)cc3)cc2)CCOCC1 ? F

I'd appreciate the recorded outcome for C[C@@H](Oc1ccc(CNC(=O)c2cccnc2Oc2ccc3c(c2)OCO3)c(F)c1)C(=O)O from this test. F

Recorded test outcome, item O=C1CN(N=Cc2ccc([N+](=O)[O-])o2)C(=O)N1 F

Hi, sorry to bother you, what did the test record for C[C@]12C=CC(=O)C=C1CC[C@H]1[C@@H]3C[C@@H](O)[C@](O)(C(=O)CO)[C@@]3(C)C[C@H](O)[C@@]12F ? F

Given O=C(O)c1cccc(C(=O)O)c1 , state the outcome it received in this test. F

Which outcome was entered for the molecule NC(=O)N(O)[C@@H]1COc2cc(OCc3ccccc3)ccc21 in this test? F

I would be grateful if you could indicate the recorded call for CC(=O)c1ccccc1 . F

I would be grateful if you could indicate the recorded call for O=C(O)c1ccc2c(c1)nc(C(=O)NC1CCN(C3CC3)CC1)n2Cc1cc(-c2ccc(Cl)s2)on1 . F

Call for entry OCCNCCO : F

Write down the call the test reported for this molecule. Item: Cc1cccc(O)c1C F

So what was the verdict on COc1cc2c(c(OC)c1OC)-c1ccc(OC)c(=O)cc1[C@@H](NC(C)=O)CC2 in this test? F

Give the logged outcome of this assay for the following molecule: CCCCCCCCCC F

Outcome? CCCCN1C(=O)[C@@H]([C@H](O)C2CCCCC2)NC(=O)C12CCN(Cc1ccc(Oc3ccc(C(=O)O)cc3)cc1)CC2 F

What call does the record list for CC[C@H](C)C(=O)O[C@H]1C[C@H](O)C=C2C=C[C@H](C)[C@H](CC[C@@H](O)C[C@@H](O)CC(=O)O)[C@H]21 ? T

What was the test verdict on CCn1nc(C)c2c1C(=O)NCC(c1ccc(O)cc1)=N2 ? F

I would be grateful if you could indicate the recorded call for NC(=O)NN=Cc1ccc([N+](=O)[O-])o1 . F

Just curious, what result did C=CCc1cc(S(=O)(=O)c2ccc(O)c(CC=C)c2)ccc1O get here? F

# fetch the recorded call for CCCCCCCCCCCCCCCCOS(=O)(=O)O here F

Hey, what did the test say about C[Si](C)(C)C(F)(F)C(F)(F)C(F)(F)F ? F

Status in this test for Cn1cc[nH]c1=S ? F

Could you kindly confirm the outcome this assay logged for Nc1ccn([C@@H]2O[C@H](CO)[C@@H](O)[C@@H]2O)c(=O)n1 ? F

Per the assay record, what outcome was assigned to FC(F)=C(F)C(F)(F)C(F)(F)C(F)(F)C(F)(F)C(F)(F)C(F)(F)F ? F
